Target: (NANP)6 (Plasmodium falciparum)
Assay: BLI, target on sensor
I'd appreciate it if you could supply Kd values for the items below.
Provide a numeric answer, followed by its unit.

Look up Kd: AB-007058 (antibody, V domains shown) VH: QMQLVESGGGVVQPGRSLRLSCTASGFTFSTYAMHWVRQSPGQGLQWVAVISYHSTNKYYEDSVRGRFTISRDNSKNTLYLQMNSLRAEDTAVYYCARDGYSTSFFDFWGQGTLVTVSS VL: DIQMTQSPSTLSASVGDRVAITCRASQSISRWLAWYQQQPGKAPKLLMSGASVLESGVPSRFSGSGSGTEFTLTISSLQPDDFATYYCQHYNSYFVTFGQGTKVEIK 1.14 nM

What value of Kd has been reported for the following binder? AB-007043 (antibody, V domains shown) VH: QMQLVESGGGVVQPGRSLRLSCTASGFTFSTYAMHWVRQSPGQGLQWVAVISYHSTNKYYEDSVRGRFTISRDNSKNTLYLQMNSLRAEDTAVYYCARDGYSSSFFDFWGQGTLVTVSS VL: DIQMTQSPSTLSASVGDRVAITCRASQSISRWLAWYQQQPGKAPKLLMSGASVLEDGVPSRFSGSGSGTEFTLTISSLQPDDFATYYCQHYNSYFVTFGQGTKVEIK 0.293 nM

Any idea what Kd was measured for AB-007063 (antibody, V domains shown) VH: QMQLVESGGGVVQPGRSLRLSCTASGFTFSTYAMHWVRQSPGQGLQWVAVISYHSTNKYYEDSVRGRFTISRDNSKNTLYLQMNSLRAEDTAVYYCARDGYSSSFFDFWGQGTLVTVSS VL: DIQMTQSPSTLSASVGDRVAITCRASQSISRWLAWYQQQPGKAPKLLMAGASVLESGVPSRFSGSGSGTEFTLTISSLQPDDFATYYCQHYNSYFVTFGQGTKVEIK ? 1.64 nM

Reference source for all entries: patent US20220195023A1
